# maps each entry to its TGI
Test system: A498 renal
protocol.text: NCI tumour cell line growth inhibition, 48 h

{"columns": ["smiles", "TGI"],
 "data": [
  ["C=C1C(=O)O[C@H]2C[C@@H]1CC/C(C)=C/CC/C(C)=C/CC[C@H]2C", "36.6 µM"],
  ["CC(=O)OCCCOCn1c(Cc2ccccc2)c(C)c(=O)[nH]c1=O", "> 100 µM"],
  ["Clc1nc(Cl)c2ncn(Cc3cccc(Cn4cnc5c(Cl)nc(Cl)nc54)c3)c2n1", "17.2 µM"],
  ["O=C(c1ccccc1)N1CCN(C(=S)N(C(=O)c2ccccc2)c2ccccc2)C1=S", "13.4 µM"],
  ["CCOC(=O)c1sc(-c2ccc(OS(=O)(=O)c3ccc(Br)s3)c(C=O)c2)nc1C", "40.1 µM"]
]}

* * *

Test system: SF-539 CNS
protocol.text: NCI tumour cell line growth inhibition, 48 h
# maps each entry to its TGI
parameter: TGI (µM)

{"columns": ["compound", "unit.string", "inequality.sign", "recorded.number"],
 "data": [
  ["Cc1c(Cl)nc(Nc2nc3ccccc3[nH]2)nc1Cl", "µM", ">", 100],
  ["COC(=O)/C(=C\\Nc1cccc(C)n1)S(=O)(=O)c1ccc(C)cc1", "µM", ">", 100],
  ["COC(=O)[C@@H](C)C[C@H](Cc1ccccc1)NC(=O)c1csc(CC[C@H](C(C)C)N(C)C(=O)[C@@H](NC(=O)[C@H]2CCCCN2C)C(C)C)n1", "µM", "=", 1.91],
  ["CN(C)CCCNC(=O)c1cc(NC(=O)c2cc(NC(=O)CCc3c[nH]c4ccccc34)cn2C)cn1C", "µM", ">", 100],
  ["COc1cccc(-c2cc(=O)c3cc(OC)ccc3[nH]2)c1", "µM", "=", 0.451],
  ["O=C(O)c1cc2ccccc2c(N=Nc2ccc(S(=O)(=O)Nc3nccs3)cc2)c1O", "µM", ">", 100],
  ["Cc1ccc(SC(CCC(Sc2ccc(C)cc2)Sc2ccc(C)cc2)Sc2ccc(C)cc2)cc1", "µM", ">", 100],
  ["CC(C)=CC(=O)C/C(=N\\NC(N)=S)C(=O)Nc1ccc(Cl)cc1", "µM", ">", 100],
  ["Cc1ccc(S(=O)(=O)N/N=C(\\c2nc3ccc(Cl)cc3[nH]c2=O)C(O)c2cccc([N+](=O)[O-])c2)cc1 (stereo unspecified)", "µM", ">", 100],
  ["NC(CCCC(N)P(=O)(O)c1ccccc1)P(=O)(O)c1ccccc1 (stereo unspecified)", "µM", ">", 261],
  ["Cc1[nH]c2c(c1C)S(=O)(=O)c1cc3ccccc3nc1N2", "µM", "=", 25.2],
  ["COc1cc(C#Cc2ccc(=O)oc2C#Cc2ccccc2)cc(OC)c1OC", "µM", "=", 11.3],
  ["COc1ccc2c(CN3CCCCC3CO)cc3cc(OC)c(OC)cc3c2c1 (stereo unspecified)", "µM", "=", 15],
  ["CN(C)CC(C)(C)C(=O)/C=C/c1ccc(/C=C/C(=O)C(C)(C)CN(C)C)cc1", "µM", "=", 3.81],
  ["Nn1c(COc2cccc(OCc3n[nH]c(=S)n3N)c2)n[nH]c1=S", "µM", ">", 100],
  ["COc1ccc(C(=O)/C=C/c2ccc(C)cc2)cc1OC", "µM", "=", 18.2],
  ["[Cl][Hg][Cl]", "µM", "=", 33.5],
  ["Cc1cc(S(=O)(=O)Nc2nc3cscc3c(=O)n2Cc2ccccc2)c(S)cc1Cl", "µM", ">", 100],
  ["N[C@H](C(=O)O)[C@H]1ON=C(Cl)[C@@H]1O", "µM", ">", 362],
  ["CC(C)(C)C(=O)c1c(C(F)(F)F)n([O-])c2ccccc2[n+]1=O", "µM", "=", 2.37],
  ["COc1ccc2c(CCN)c(C(=O)O)[nH]c2c1", "µM", ">", 100]
]}

* * *

System: SF-268 CNS
protocol.text: NCI tumour cell line growth inhibition, 48 h
# maps each entry to its TGI

{"columns": ["compound", "TGI"],
 "data": [
  ["O=C(c1ccco1)N1CCCN(C(=O)c2ccco2)C1=S", "> 100 µM"],
  ["Clc1nc(Cl)c2ncn(Cc3cccc(Cn4cnc5c(Cl)nc(Cl)nc54)c3)c2n1", "31.5 µM"],
  ["CCC12CCCN(Cc3ccccc3)C1c1c([nH]c3ccccc13)C(C(=O)OC)C2 (centres undefined)", "> 10 µM"],
  ["O=C(/N=C/c1c(O)c2ccccc2oc1=O)Nc1ccccc1", "> 100 µM"],
  ["CCOC(=O)C1N(S(=O)(=O)c2ccc(C)cc2)CCC12c1ccccc1N(C(C)=O)C2c1ccc(OC)c(OC)c1 (centres undefined)", "> 100 µM"],
  ["O=C(/C=C/c1ccc(O)cc1)c1ccc2c(c1)OCO2", "58.5 µM"],
  ["COC(=O)/C(=C\\Nc1cccc(C)n1)S(=O)(=O)c1ccc(C)cc1", "> 100 µM"],
  ["FC(F)(F)c1nc2nc(Cl)c(Cl)nc2n1CCCN1CCOCC1", "> 100 µM"],
  ["FC(F)c1nc2ccccc2n1-c1nc(N2CCOCC2)nc(N2CCOCC2)n1", "> 100 µM"]
]}

* * *

Tested on: SF-295 CNS
protocol.text: NCI tumour cell line growth inhibition, 48 h

{"columns": ["compound", "tested.target", "TGI"],
 "data": [
  ["FC(F)(F)c1nc2nc(Cl)c(Cl)nc2n1CCCN1CCOCC1", "SF-295 CNS", "> 100 µM"],
  ["Nc1nc(SCc2ccc([N+](=O)[O-])cc2)nc2c1ncn2C1OC(COP(=O)(O)O)C(O)C1O (stereo unspecified)", "SF-295 CNS", "> 100 µM"],
  ["Cc1ccc(SC(CCC(Sc2ccc(C)cc2)Sc2ccc(C)cc2)Sc2ccc(C)cc2)cc1", "SF-295 CNS", "> 100 µM"],
  ["COC(=O)c1c2c(c[n+]([O-])c1C)C(=O)C=CC2=O", "SF-295 CNS", "13.2 µM"],
  ["Clc1nc(Cl)c2ncn(Cc3cccc(Cn4cnc5c(Cl)nc(Cl)nc54)c3)c2n1", "SF-295 CNS", "30.9 µM"],
  ["OC(c1cc2ccccc2o1)c1cc2ccccc2s1 (stereo unspecified)", "SF-295 CNS", "> 10 µM"]
]}

* * *

System: PC-3 prostate
protocol.text: NCI tumour cell line growth inhibition, 48 h

{"columns": ["smiles", "tested.target", "GI50"],
 "data": [
  ["S=C(Nc1ccc(Br)cc1)Nc1ccc(Br)cc1", "PC-3 prostate", "4.17 µM"],
  ["CN(C)CCCNC(=O)c1cc(NC(=O)c2cc(NC(=O)CCc3c[nH]c4ccccc34)cn2C)cn1C", "PC-3 prostate", "> 100 µM"],
  ["Cc1nn(-c2nc3ccccc3[nH]2)c(N)c1-c1ccc(Cl)cc1", "PC-3 prostate", "2.97 µM"],
  ["COc1ccc(-c2cn[nH]c2-c2cc(OC)c3c(c2)OCO3)cc1", "PC-3 prostate", "0.262 µM"],
  ["Cc1sc2nc(-c3ccncc3)c(/C=N/N=C(N)N)n2c1C", "PC-3 prostate", "58.4 µM"],
  ["COC(=O)CCc1c[nH]c2ccc(N(CCCl)CCCl)cc12", "PC-3 prostate", "8.65 µM"]
]}

* * *

Test system: A549 NSCLC
protocol.text: NCI tumour cell line growth inhibition, 48 h
# maps each entry to its TGI
parameter: TGI

{"columns": ["compound", "tested.target", "result"],
 "data": [
  ["Cc1ccc(N=N/C(=N\\NC(=O)c2ccc(C)cc2)c2ccc(N(CCC#N)CCC#N)cc2C)cc1", "A549 NSCLC", "> 100 µM"],
  ["O=C(CC(c1ccccc1)c1c(O)c2ccccc2oc1=O)c1ccccc1 (stereo unspecified)", "A549 NSCLC", "> 100 µM"],
  ["COC(=O)C1=C(C(=O)OC)C(C(=O)c2ccc(Br)cc2)N2N=C(c3ccc(Cl)cc3)C=CC12 (stereo unspecified)", "A549 NSCLC", "> 100 µM"],
  ["OCc1ccc(-c2ccc(-c3ccc(CO)o3)[se]2)o1", "A549 NSCLC", "> 100 µM"],
  ["Cc1cc(S(=O)(=O)Nc2nc3cscc3c(=O)n2Cc2ccccc2)c(S)cc1Cl", "A549 NSCLC", "> 100 µM"],
  ["CC(=O)[C@@]1(C)CC2(CCN(C)CC2)OC1C (stereo partly specified)", "A549 NSCLC", "> 100 µM"],
  ["c1cc(N(CCn2cccn2)CCn2cccn2)cc(N(CCn2cccn2)CCn2cccn2)c1", "A549 NSCLC", "> 100 µM"],
  ["COc1cc(C2c3cc4c(cc3[C@@H](Nc3ccccc3)C3COC[C@H]23)OCO4)cc(OC)c1O (stereo partly specified)", "A549 NSCLC", "14 µM"],
  ["CCCN(CCCC(NC(C)=O)C(=O)NCc1ccccc1)C(=O)N(CCCl)N=O (stereo unspecified)", "A549 NSCLC", "68.7 µM"],
  ["[Cl][Hg][Cl]", "A549 NSCLC", "39.3 µM"],
  ["CC1(C)N=C(C(N)=O)c2ncn(N)c2N1", "A549 NSCLC", "> 100 µM"]
]}
